# ASSAYED SYSTEM: T1, ttPOLXc domain (Thermus thermophilus HB8, UniProt Q5SJ64 1-379)
# T1 sequence: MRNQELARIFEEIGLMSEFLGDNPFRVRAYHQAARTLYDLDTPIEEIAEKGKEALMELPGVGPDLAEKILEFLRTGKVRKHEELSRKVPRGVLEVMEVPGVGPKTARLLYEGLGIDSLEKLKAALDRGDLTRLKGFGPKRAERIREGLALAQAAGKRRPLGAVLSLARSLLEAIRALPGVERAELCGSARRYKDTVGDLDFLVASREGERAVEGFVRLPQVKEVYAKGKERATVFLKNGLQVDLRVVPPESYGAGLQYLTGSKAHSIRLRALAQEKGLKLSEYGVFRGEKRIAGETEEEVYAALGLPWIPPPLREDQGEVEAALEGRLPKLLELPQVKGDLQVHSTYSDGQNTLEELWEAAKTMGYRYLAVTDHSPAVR
# METHOD DESCRIPTION: EMSA

# BINDER, Kd / µM
rows = [
    ("40T/40C dsDNA (dsDNA) DNA 1: CACTGGCGGTCGTTCTATCGGGTGTTGCTTTAGTTGTCAT DNA 2: ATGACAACTAAAGCAACACCCGATAGAACGACCGCCAGTG", 9.3),
]
